Target: Recombinant ROCK1 (amino acids 1-477) (Homo sapiens, UniProt Q13464)
Construct: Recombinant ROCK1 (amino acids 1-477); by word order, ROCK1 from Carna Biosciences
Sequence (Q13464 1-477): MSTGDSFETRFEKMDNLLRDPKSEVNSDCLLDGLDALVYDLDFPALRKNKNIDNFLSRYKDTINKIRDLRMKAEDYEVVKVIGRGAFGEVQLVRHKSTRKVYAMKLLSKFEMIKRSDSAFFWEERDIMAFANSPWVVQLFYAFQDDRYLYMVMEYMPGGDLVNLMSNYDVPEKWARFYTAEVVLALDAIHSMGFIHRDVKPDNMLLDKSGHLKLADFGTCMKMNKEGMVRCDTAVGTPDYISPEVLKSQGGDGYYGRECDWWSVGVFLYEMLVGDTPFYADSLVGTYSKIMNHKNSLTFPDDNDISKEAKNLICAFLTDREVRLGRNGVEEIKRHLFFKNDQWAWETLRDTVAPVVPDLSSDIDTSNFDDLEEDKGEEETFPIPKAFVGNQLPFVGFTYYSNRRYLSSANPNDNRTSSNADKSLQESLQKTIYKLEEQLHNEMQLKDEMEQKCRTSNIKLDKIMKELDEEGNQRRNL
Test: ROCK inhibition assay, LANCE Ultra TR-FRET kinase assay (ROCK1)
Settings: 1 μM ATP, 50 nM ULight-CREBtide substrate
Experimental: Kinase IC50 was determined through an in vitro assay based on LANCE Ultra TR-FRET (Time-Resolved Fluorescence Resonance Energy Transfer) homogeneous technologies method (Perkin Elmer). […] Compound activities were measured by Envision and IC50s were calculated. […] The reaction was incubated for 1 hour, and the signal was read in Envision in TR-FRET mode (excitation at 320 nm and emission at 615/665 nm). […]
Attribute: IC50

Below are worked cases with known answers.
compound=Nc1cc(-c2ccc3c(=O)n(Cc4cccc(C(=O)Nc5ccon5)c4)ccc3c2)ccn1 experimental_result="> 501 nM"
compound=COc1cccc(Cn2cnc3cc(-c4c[nH]nc4Cl)ccc3c2=O)c1 experimental_result="11 to 100 nM"
compound="NCC(c1cccc(C(N)=O)c1)n1cnc2cc(-c3cn[nH]c3Cl)ccc2c1=O (stereo not shown)" experimental_result="> 501 nM"

Moving on to another compound below.
Asked: Name the reported IC50 value associated with the compound `O=C(N[C@H]1CC[C@@H](O)CC1)c1cc(F)cc(Cn2ccc3cc(N4CCOCC4)ccc3c2=O)c1`
Given back: > 501 nM

* * *

target: Recombinant ROCK2 (amino acids 5-554) (Homo sapiens); construct: ROCK2 (amino acids 5-554); by word order, ROCK2 from SignalChem; test: ROCK inhibition assay, LANCE Ultra TR-FRET kinase assay (ROCK2); type: biochemical; conditions: 4 μM ATP, 50 nM ULight-CREBtide substrate
Sequence (O75116 5-554): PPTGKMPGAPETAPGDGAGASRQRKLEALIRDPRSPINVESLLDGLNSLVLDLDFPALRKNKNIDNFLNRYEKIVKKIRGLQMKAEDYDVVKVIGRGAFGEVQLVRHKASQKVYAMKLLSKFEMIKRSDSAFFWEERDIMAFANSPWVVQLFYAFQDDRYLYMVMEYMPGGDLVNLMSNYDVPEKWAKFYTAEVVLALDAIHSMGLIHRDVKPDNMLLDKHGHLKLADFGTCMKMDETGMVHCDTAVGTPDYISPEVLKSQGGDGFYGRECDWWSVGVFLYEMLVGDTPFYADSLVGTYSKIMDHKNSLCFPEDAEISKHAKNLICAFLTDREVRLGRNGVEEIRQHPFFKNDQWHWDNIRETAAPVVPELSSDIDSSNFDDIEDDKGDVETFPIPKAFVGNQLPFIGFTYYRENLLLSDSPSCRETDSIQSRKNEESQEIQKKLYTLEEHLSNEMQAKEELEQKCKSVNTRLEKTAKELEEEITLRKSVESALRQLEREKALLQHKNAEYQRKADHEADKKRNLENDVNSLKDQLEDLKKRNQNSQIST
pIC50: −log10 of the molar value.
measured.attribute: pIC50

Asked: Name the reported pIC50 value associated with the compound `CN1CCC(CNC(=O)c2cc(F)cc(Cn3ccc4cc(N5CCOCC5)ccc4c3=O)c2)CC1`
Given back: 7.00 to 8.00

Asked: Name the reported pIC50 value associated with the compound `O=C(NCCc1ccccn1)c1cccc(Cn2ccc3cc(-c4cn[nH]c4)ccc3c2=O)c1`
Given back: > 8.00

Asked: Name the reported pIC50 value associated with the compound `O=C(Nc1ccno1)c1cccc(Cn2ccc3cc(N4CCOCC4)ccc3c2=O)c1`
Given back: < 6.30

Asked: Name the reported pIC50 value associated with the compound `Cc1nocc1-c1ccc2c(=O)n(Cc3cc(F)cc(C(=O)NCC4CCNCC4)c3)ccc2c1`
Given back: > 8.00

Asked: Name the reported pIC50 value associated with the compound `Nc1cc(-c2ccc3c(=O)n(Cc4cccc(C(=O)NCc5ccc6ccccc6c5)c4)ccc3c2)ccn1`
Given back: 6.30 to 7.00

Asked: Name the reported pIC50 value associated with the compound `Nc1cc(-c2ccc3c(=O)n(Cc4cccc(C(=O)Nc5ccon5)c4)ccc3c2)ccn1`
Given back: 6.30 to 7.00

Asked: Name the reported pIC50 value associated with the compound `Cc1nocc1-c1ccc2c(=O)n(Cc3cc(F)cc(C(=O)NCC4CCN(C(C)C)CC4)c3)ccc2c1`
Given back: 7.00 to 8.00

Asked: Name the reported pIC50 value associated with the compound `CNC(=O)c1cccc(Cn2cc(CCO)c3cc(-c4ccnc(N)c4)ccc3c2=O)c1`
Given back: 7.00 to 8.00

Asked: Name the reported pIC50 value associated with the compound `Cc1nocc1-c1ccc2c(=O)n(Cc3cc(F)cc(NC(=O)c4ccccn4)c3)ccc2c1`
Given back: 7.00 to 8.00

Asked: Name the reported pIC50 value associated with the compound `O=C(NC1CCNCC1)c1cccc(Cn2cnc3cc(-c4cn[nH]c4Cl)ccc3c2=O)c1`
Given back: > 8.00
